Source: ChEMBL document CHEMBL3853346

- PROTOCOL_DESCRIPTION: Cytotoxicity against human MT4 cells assessed as reduction in cell viability after 5 days by MTT assay
- Assay type: toxicity, cell-based
RECORDED_ENDPOINT: CC50 at 120 h (µg/mL)
Express the result in µg/mL but write the number alone.

Illustrative cases are given below, each with its answer.
COc1ccc(-c2cc3oc(=O)cc(C)c3cc2-c2cccc(C)c2)cc1 | 7.4
Cc1cc(=O)oc2cc(-c3ccc(C(F)(F)F)cc3)c(OS(=O)(=O)C(F)(F)F)cc12 | 80.3
Cc1cc(=O)oc2cc(-c3ccccc3)c(-c3ccccc3)cc12 | 13.8
CCOc1ccc(-c2cc3oc(=O)cc(C)c3cc2-c2ccc(OCC)cc2)cc1 | 37.3
COc1ccc(-c2cc3oc(=O)cc(C)c3cc2-c2ccc(Cl)cc2)cc1 | 2.06

Ask | # CC50 at 120 h lookup, item `Cc1cc(C)cc(-c2cc3oc(=O)cc(C)c3cc2-c2cc(C)cc(C)c2)c1`
Reply | 14.4

Ask | Next entry: `COc1ccc(-c2cc3oc(=O)cc(C)c3cc2-c2cc(C)cc(C)c2)cc1`
Reply | 2.08

Ask | Try this compound too: `Cc1cc(=O)oc2cc(-c3ccc(Cl)cc3)c(OS(=O)(=O)C(F)(F)F)cc12`
Reply | 35.6

Ask | Next up: `Cc1cc(=O)oc2cc(OS(=O)(=O)C(F)(F)F)c(OS(=O)(=O)C(F)(F)F)cc12`
Reply | 43.5

Ask | And what about the compound `Cc1cc(C)cc(-c2cc3oc(=O)cc(C)c3cc2OS(=O)(=O)C(F)(F)F)c1` ?
Reply | 33.1

Ask | What do we get for `COc1cccc(-c2cc3oc(=O)cc(C)c3cc2OS(=O)(=O)C(F)(F)F)c1` ?
Reply | 18.9

Ask | Here is the next compound: `Cc1cc(=O)oc2cc(-c3ccccc3)c(OS(=O)(=O)C(F)(F)F)cc12`
Reply | 12.6
